system.name: HDAC8 (Homo sapiens, UniProt Q9BY41)
Construct: Recombinant, full-length HDAC protein (BPS Biosciences) was incubated with fluorophore conjugated substrate
Sequence (Q9BY41 whole entry): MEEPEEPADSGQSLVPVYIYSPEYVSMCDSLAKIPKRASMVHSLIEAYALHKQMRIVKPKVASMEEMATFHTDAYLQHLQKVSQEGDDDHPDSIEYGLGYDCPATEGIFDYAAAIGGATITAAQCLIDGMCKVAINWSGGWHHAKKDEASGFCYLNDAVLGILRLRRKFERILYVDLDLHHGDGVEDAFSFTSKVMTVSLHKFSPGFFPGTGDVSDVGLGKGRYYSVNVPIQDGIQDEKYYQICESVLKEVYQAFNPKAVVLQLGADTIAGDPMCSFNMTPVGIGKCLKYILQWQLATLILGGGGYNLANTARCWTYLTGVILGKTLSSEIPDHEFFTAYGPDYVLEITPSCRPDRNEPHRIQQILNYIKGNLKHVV
test.summary: In vitro HDAC enzyme inhibition assay, HDAC8
study.conditions: recombinant full-length HDAC8, substrate MAZ1675 282 μM
pIC50: −log10 of the molar value.

- structure.string: "O=C(NO)c1ccc(Cn2nnc3cc(Cl)ccc32)cc1"
  system.name: "HDAC8 (Homo sapiens, UniProt Q9BY41)"
  pIC50: 6.21
- structure.string: "O=C(NO)c1ccc(Cn2nnc3cc(F)ccc32)cc1"
  system.name: "HDAC8 (Homo sapiens, UniProt Q9BY41)"
  pIC50: 6.12
- structure.string: "COc1ccc2c(c1)nc(C(F)(F)F)n2Cc1ccc(C(=O)NO)cc1"
  system.name: "HDAC8 (Homo sapiens, UniProt Q9BY41)"
  pIC50: 5.81
- structure.string: "O=C(NO)c1ccc(Cn2c(C(F)(F)F)nc3cc(Br)ccc32)cc1"
  system.name: "HDAC8 (Homo sapiens, UniProt Q9BY41)"
  pIC50: 5.96
- structure.string: "O=C(NO)c1ccc(Cn2c(=O)[nH]c3cc(Cl)ccc32)cc1"
  system.name: "HDAC8 (Homo sapiens, UniProt Q9BY41)"
  pIC50: 6.77
- structure.string: "O=C(NO)c1ccc(Cn2c(=O)[nH]c3cc(F)ccc32)cc1"
  system.name: "HDAC8 (Homo sapiens, UniProt Q9BY41)"
  pIC50: 6.56
- structure.string: "O=C(NO)c1ccc(Cn2cnc3ccccc32)cc1"
  system.name: "HDAC8 (Homo sapiens, UniProt Q9BY41)"
  pIC50: 6.19
- structure.string: "O=C(NO)c1ccc(Cn2nnc3ccccc32)cc1"
  system.name: "HDAC8 (Homo sapiens, UniProt Q9BY41)"
  pIC50: 6.52
- structure.string: "O=C(NO)c1ccc(Cn2c(=O)[nH]c3ccccc32)cc1"
  system.name: "HDAC8 (Homo sapiens, UniProt Q9BY41)"
  pIC50: 6.17
- structure.string: "O=C(NO)c1ccc(Cn2c(C(F)(F)F)nc3cc(Cl)ccc32)cc1"
  system.name: "HDAC8 (Homo sapiens, UniProt Q9BY41)"
  pIC50: 5.84
- structure.string: "O=C(NO)c1ccc(Cn2cnc3cc(Br)ccc32)cc1"
  system.name: "HDAC8 (Homo sapiens, UniProt Q9BY41)"
  pIC50: 6.52

The reported numbers originate from patent US20150197497A1.
